meta.source: patent US20260167713A1

- Study system: T1, recombinant full-length human beta-catenin (human, UniProt P35222 2-781, biotinylated in the ELISA and SPR assays (sites not given); not biotinylated on the Western blots)
- T1 construct: Tags are not described; also called β-catenin; biotinylated beta-catenin
- T1 sequence: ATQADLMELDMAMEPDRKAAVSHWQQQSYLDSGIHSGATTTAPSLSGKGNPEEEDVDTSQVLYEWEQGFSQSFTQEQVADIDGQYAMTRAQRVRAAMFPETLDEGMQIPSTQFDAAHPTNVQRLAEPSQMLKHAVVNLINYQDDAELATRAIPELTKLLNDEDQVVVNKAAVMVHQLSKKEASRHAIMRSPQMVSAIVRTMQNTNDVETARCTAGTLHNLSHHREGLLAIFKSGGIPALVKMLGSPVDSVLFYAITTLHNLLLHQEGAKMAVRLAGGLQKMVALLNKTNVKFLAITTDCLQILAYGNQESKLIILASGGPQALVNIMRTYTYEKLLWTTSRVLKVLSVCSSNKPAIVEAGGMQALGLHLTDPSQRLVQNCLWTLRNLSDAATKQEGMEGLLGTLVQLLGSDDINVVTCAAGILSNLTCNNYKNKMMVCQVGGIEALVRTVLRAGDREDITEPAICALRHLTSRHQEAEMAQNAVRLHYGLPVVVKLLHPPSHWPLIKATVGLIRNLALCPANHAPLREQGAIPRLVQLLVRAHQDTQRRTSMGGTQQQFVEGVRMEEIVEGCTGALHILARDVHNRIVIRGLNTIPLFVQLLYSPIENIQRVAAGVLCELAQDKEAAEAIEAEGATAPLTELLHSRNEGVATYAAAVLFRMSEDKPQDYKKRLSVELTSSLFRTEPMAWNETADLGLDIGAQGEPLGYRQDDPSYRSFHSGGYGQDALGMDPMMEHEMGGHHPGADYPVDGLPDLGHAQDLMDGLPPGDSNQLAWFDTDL
- Experimental details: SPR (Biacore T100), biotinylated beta-catenin captured on streptavidin, VHH-scFc in solution
koff overview
Give your result in s⁻¹ as a bare value.

{"columns": ["Binder", "Measurement"],
 "data": [
  ["IBV2-scFc (Fc fusion, not shown: a dimerising Fc or GST; large carriers; small tags and cut ends, Single chain mouse IgG Fc construct, used as transient HEK293 supernatant; also called VH-V2) VHH: QVQLVQSGGGLVQPGGSLRLSCAASGSISSNNVMGWYRQGPGKQREFVASITDSDLANYAASVKGRFTISRDNAKNTVNLQMNSLRPEDTDVYYCRLTMMTYPPIISWGQGTQVTVSS", 0.000165]
]}

Continue with the next binder.
Form field koff, entry IBV3-scFc (Fc fusion, not shown: a dimerising Fc or GST; large carriers; small tags and cut ends, Single chain mouse IgG Fc construct, used as transient HEK293 supernatant; also called VH-V3) VHH: QVQLVESGGGLVQPGGSLRLSCAASGTISSNNVMGWYRQGPGKQREFVASVTDSDLANYAASVKGRFTISRDNAKNTVNLQMNSLRPEDTGVYYCRLTIMTYPPTISWGQGTQVTVSS : 0.000169
